- Test system: GENE-TOX genotoxicity assays, various organisms and cells
- protocol: GENE-TOX mutagenicity studies
- assay_setup: Species/Cell Type: Mouse; Sex: Male; Assay Type: Sperm morphology; Assay Code: SPI-; Evaluation Type: Evaluation A (Pre-1980)
Calls of active or inactive are those of the source. No rule for the calls is given here.
parameter: mutagenic call

// worked examples, mutagenic call included
CN(C)c1ccc(N=Nc2ccc(S(=O)(=O)O)cc2)cc1; inactive; negative
NC(=O)N/N=C/c1ccc([N+](=O)[O-])o1; inactive; negative
Nc1ccc(-c2ccc(N)cc2)cc1; inactive; negative
O=C1CCCO1; inactive; negative
O=C1O[C@H]([C@@H](O)CO)C(O)=C1O; inactive; negative
Nc1ccc(F)cc1; inactive; negative

Hi! What's the reported mutagenic call for OC(O)C(Cl)(Cl)Cl on GENE-TOX genotoxicity assays, various organisms and cells?
inactive; negative

Hi! What's the reported mutagenic call for CN(C)N on GENE-TOX genotoxicity assays, various organisms and cells?
inactive; negative

Hi! What's the reported mutagenic call for [N-]=[N+]=O on GENE-TOX genotoxicity assays, various organisms and cells?
inactive; negative

Hi! What's the reported mutagenic call for CNC[C@H](O)c1ccc(O)c(O)c1 on GENE-TOX genotoxicity assays, various organisms and cells?
inactive; negative

Hi! What's the reported mutagenic call for [N-]=[N+]=[N-] on GENE-TOX genotoxicity assays, various organisms and cells?
inactive; negative

Hi! What's the reported mutagenic call for CCN1CC[C@@H]2[C@@H](c3ccc(C)cc3)c3cc(C)ccc3[C@@H]2C1 on GENE-TOX genotoxicity assays, various organisms and cells?
inactive; negative

Hi! What's the reported mutagenic call for Cc1ccc(Cl)cc1N on GENE-TOX genotoxicity assays, various organisms and cells?
inactive; negative

Hi! What's the reported mutagenic call for O=C(O)CCC(=O)OC[C@@H](NC(=O)C(Cl)Cl)[C@H](O)c1ccc([N+](=O)[O-])cc1 on GENE-TOX genotoxicity assays, various organisms and cells?
inactive; negative

###

- Tested on: GENE-TOX genotoxicity assays, various organisms and cells
- protocol: GENE-TOX mutagenicity studies
- assay_setup: Species/Cell Type: Nonhuman; Assay Type: Sister-chromatid exchange (SCE) in vitro; Assay Code: SC2T; Evaluation Type: Evaluation A (Pre-1980)
parameter: mutagenic call

O=S(=O)(O)c1ccc(N=Nc2c(O)ccc3cc(S(=O)(=O)O)ccc23)cc1; no conclusion
CCCCNCCCCO; no conclusion
COc1c2occc2cc2ccc(=O)oc12; no conclusion

###

- System: GENE-TOX genotoxicity assays, various organisms and cells
- protocol: GENE-TOX mutagenicity studies
- assay_setup: Species/Cell Type: Saccharomyces cerevisiae; Assay Type: Forward and reverse gene mutation, mitotic recombination and gene conversion, host-mediated assay; Assay Code: HME+; Evaluation Type: Evaluation A (Pre-1980)
Active and inactive are the calls of the source. How the calls were made is not given here.
parameter: mutagenic call

CN(C)N=Nc1cccnc1; active; positive
C1CN1c1nc(N2CC2)nc(N2CC2)n1; active; positive
C=Cc1ccccc1; active; positive
ClC=C(Cl)Cl; active; positive
c1ccc(C2CO2)cc1 (stereo not drawn); active; positive
CN(C)N=Nc1ccccc1; active; positive
O=C1CN(/N=C/c2ccc([N+](=O)[O-])o2)C(=O)N1; active; positive

We next turn to a different compound, shown below.
Requested field: mutagenic call. Item: COc1ccc2nc3cc(Cl)ccc3c(NCCCNCCCl)c2c1
active; positive

###

- System: GENE-TOX genotoxicity assays, various organisms and cells
- protocol: GENE-TOX mutagenicity studies
- assay_setup: Species/Cell Type: Escherichia coli WP2 UVRA; Assay Type: Tryptophan reverse gene mutation; Assay Code: WPU-*; Activation: With metabolic activation; Evaluation Type: Evaluation A (Pre-1980)
Calls of active or inactive are those of the source. The rule behind the calls is not given here.
parameter: mutagenic call

// worked examples, mutagenic call included
COP(=S)(OC)SCn1nnc2ccccc2c1=O; inactive; negative
O=C(O)c1ccccc1; inactive; negative
[Cl][Sn][Cl]; inactive; negative
O=S(O)O; inactive; negative
CCC(C)c1cc([N+](=O)[O-])cc([N+](=O)[O-])c1O (stereo unspecified); inactive; negative
CCOC(=O)CC(SP(=S)(OC)OC)C(=O)OCC (stereo unspecified); inactive; negative
O=S(O)OS(=O)O; inactive; negative
O=C(O)COc1ccc(Cl)cc1Cl; inactive; negative
CCOP(=S)(OCC)Oc1ccc([N+](=O)[O-])cc1; inactive; negative
CNC(=O)O/N=C(\C)SC; inactive; negative

Requested field: mutagenic call. Item: COP(=O)(OC)O/C(C)=C/C(=O)OC(C)c1ccccc1 (stereo unspecified)
inactive; negative

Requested field: mutagenic call. Item: COP(=S)(OC)Oc1ccc(SC)c(C)c1
inactive; negative

Requested field: mutagenic call. Item: CC1CCCCC1NC(=O)Nc1ccccc1 (stereo unspecified)
inactive; negative

Requested field: mutagenic call. Item: CNC(=O)/C=C(\C)OP(=O)(OC)OC
inactive; negative

###

- Tested on: GENE-TOX genotoxicity assays, various organisms and cells
- protocol: GENE-TOX mutagenicity studies
- assay_setup: Species/Cell Type: Bacillus subtilis (H17 vs M45); Assay Type: Rec-assay, spot test, DNA effects (bacterial DNA repair); Assay Code: REW+; Evaluation Type: Evaluation A (Pre-1980)
- Description: GENE-TOX provides genetic toxicology (mutagenicity) test data from expert peer review of open scientific literature for more than 3,000 chemicals from the United States Environmental Protection Agency (EPA). GENE-TOX was established to select assay systems for evaluation, review data in the scientific literature, and recommend proper testing protocols and evaluation procedures for these systems. GENE-TOX covers the years 1991 - 1998. It is no longer updated. […]
Calls of active or inactive are those of the source. No rule for the calls is given here.
parameter: mutagenic call

O=[N+]([O-])[O-].O=[N+]([O-])[O-].O=[N+]([O-])[O-].[Rh+3]; active; positive
[O-][n+]1ccccc1; active; positive
O=[N+]([O-])c1ccc(-c2cscn2)o1; active; positive
O=C1OCCN1N=Cc1ccc([N+](=O)[O-])o1; active; positive
[O]=[V](=[O])[OH]; active; positive
[Cl][Sb]([Cl])([Cl])([Cl])[Cl]; active; positive

We next turn to a different compound, shown below.
Requested field: mutagenic call. Item: [O]=[Cr](=[O])([OH])[O][Cr](=[O])(=[O])[OH]
active; positive

###

- Tested on: GENE-TOX genotoxicity assays, various organisms and cells
- protocol: GENE-TOX mutagenicity studies
- assay_setup: Species/Cell Type: Salmonella typhimurium (one or more of the five standard strains: TA98, TA100, TA1535, TA1537, and TA1538); Assay Type: Histidine reverse gene mutation, Ames assay; Assay Code: SAL-; Evaluation Type: Evaluation A (Pre-1980)
The source made the active and inactive calls. The rule behind the calls is not given here.
parameter: mutagenic call

// worked examples, mutagenic call included
C=CC(O)c1ccc2c(c1)OCO2 (configuration not stated); inactive; negative
CCCOP(=S)(OCCC)OP(=S)(OCCC)OCCC; inactive; negative
Oc1ccc2cccnc2c1; inactive; negative
O=C(O)CN(CCN(CC(=O)O)CC(=O)O)CC(=O)O; inactive; negative

Requested field: mutagenic call. Item: C1=CC2C3C=CC(C3)C2C1 (configuration not stated)
inactive; negative

Requested field: mutagenic call. Item: CC(C)c1ccccc1
inactive; negative

Requested field: mutagenic call. Item: CCC(=O)Nc1ccc(Cl)c(Cl)c1
inactive; negative

Requested field: mutagenic call. Item: CCC1(c2ccccc2)C(=O)N=C(O)NC1=O (configuration not stated)
inactive; negative

Requested field: mutagenic call. Item: CNNCc1ccc(C(=O)NC(C)C)cc1
inactive; negative

Requested field: mutagenic call. Item: O=S(=O)(O)c1ccc(N=Nc2c(O)ccc3cc(S(=O)(=O)O)ccc23)cc1
inactive; negative

Requested field: mutagenic call. Item: CCN(Cc1cccc(S(=O)(=O)O)c1)c1ccc(C(=C2C=CC(=[N+](CC)Cc3cccc(S(=O)(=O)O)c3)C=C2)c2ccccc2S(=O)(=O)[O-])cc1
inactive; negative

Requested field: mutagenic call. Item: O=S(=O)(O)c1ccc(N=Nc2cc(S(=O)(=O)O)c3ccccc3c2O)c2ccccc12
inactive; negative

###

- Test system: GENE-TOX genotoxicity assays, various organisms and cells
- protocol: GENE-TOX mutagenicity studies
- assay_setup: Species/Cell Type: Nonhuman; Assay Type: In vivo carcinogenicity studies; Assay Code: CCGT; Evaluation Type: Evaluation A (Pre-1980)
parameter: call

// worked examples, call included
Cc1c2ccccc2c(C)c2c1ccc1cc(O)ccc12; no conclusion
c1cc2ccc3cccc4ccc(c1)c2c34; no conclusion
Cc1c2c(cc3c1ccc1ccccc13)C=C[C@@H](O)[C@@H]2O; no conclusion
CCN(CC)c1ccc2c(-c3ccccc3C(=O)O)c3ccc(=[N+](CC)CC)cc-3oc2c1; no conclusion

Requested field: call. Item: NC1CCCCC1
no conclusion

Requested field: call. Item: Oc1cc2c3ccccc3cc3ccc4cccc1c4c32
no conclusion

Requested field: call. Item: Cc1ccc2cc3c(ccc4ccccc43)c3c2c1CC3=O
no conclusion
